assayed_target: alanyl aminopeptidases (APN) (Homo sapiens)
Sequence (P15144 whole entry, species assumed): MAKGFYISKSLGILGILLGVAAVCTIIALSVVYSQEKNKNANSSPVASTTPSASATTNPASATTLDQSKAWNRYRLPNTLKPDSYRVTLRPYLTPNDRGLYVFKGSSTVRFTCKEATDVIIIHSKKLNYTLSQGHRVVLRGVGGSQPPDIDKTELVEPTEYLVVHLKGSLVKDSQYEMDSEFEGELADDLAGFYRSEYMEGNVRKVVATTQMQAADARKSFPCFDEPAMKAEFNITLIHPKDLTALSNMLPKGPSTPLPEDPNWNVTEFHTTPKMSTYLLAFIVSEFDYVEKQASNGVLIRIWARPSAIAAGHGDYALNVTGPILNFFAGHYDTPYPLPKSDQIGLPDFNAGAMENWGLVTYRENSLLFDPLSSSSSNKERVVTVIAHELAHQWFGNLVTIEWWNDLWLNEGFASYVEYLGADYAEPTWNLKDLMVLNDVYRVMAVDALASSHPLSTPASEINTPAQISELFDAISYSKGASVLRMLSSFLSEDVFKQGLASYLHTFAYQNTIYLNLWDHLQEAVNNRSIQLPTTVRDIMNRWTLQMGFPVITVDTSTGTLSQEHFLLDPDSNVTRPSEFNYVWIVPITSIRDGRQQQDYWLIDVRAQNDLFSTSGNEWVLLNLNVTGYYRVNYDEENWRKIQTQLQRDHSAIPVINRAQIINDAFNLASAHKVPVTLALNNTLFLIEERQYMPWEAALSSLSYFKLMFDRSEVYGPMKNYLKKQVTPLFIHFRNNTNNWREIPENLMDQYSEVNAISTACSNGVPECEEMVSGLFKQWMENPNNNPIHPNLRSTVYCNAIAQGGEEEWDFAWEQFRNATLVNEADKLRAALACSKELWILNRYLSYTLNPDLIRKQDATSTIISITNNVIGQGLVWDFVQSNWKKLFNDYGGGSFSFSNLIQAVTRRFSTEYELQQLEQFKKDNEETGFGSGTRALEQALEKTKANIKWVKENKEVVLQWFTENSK
assay_overview: Inhibition of alanyl aminopeptidase enzymatic activity, fluorogenic substrate (Ala)2-rhodamine 110
Type: biochemical
condition_summary: Table 4, unstarred values; read-out: IC50APN
Record form. Attribute: IC50. Fill in for each entry.
Write the value in µM as a bare number.

[Q] I would be grateful if you could share the reported IC50 for `CSc1nnc2n(/N=C/c3ccco3)cnn12` .
[A] 34.7

[Q] I would be grateful if you could share the reported IC50 for `COc1ccccc1C(=O)N/N=C/c1ccco1` .
[A] 44.7

[Q] I would be grateful if you could share the reported IC50 for `Cc1ccc(/C=N/NC(=O)c2cccc(CC(=O)c3ccccc3C)c2)o1` .
[A] 18.9

[Q] I would be grateful if you could share the reported IC50 for `COc1cc(/C=N/NC(=O)/C(=C\c2ccc(N(C)C)cc2)NC(=O)c2ccccc2)cc([N+](=O)[O-])c1O` .
[A] 23

[Q] I would be grateful if you could share the reported IC50 for `Cc1occc1C(=O)N/N=C/C=C\c1ccco1` .
[A] 31

[Q] I would be grateful if you could share the reported IC50 for CC(/C=N/NC(=O)C(O)c1ccccc1)=C\c1ccco1 (stereo not shown) .
[A] 36.3

[Q] I would be grateful if you could share the reported IC50 for `O=C(Cc1cccs1)N/N=C\c1ccco1` .
[A] 143

[Q] I would be grateful if you could share the reported IC50 for `COc1ccc(/C(C)=N/NC(=O)CNC(=O)/C=C\c2ccco2)cc1OC` .
[A] 19.9

[Q] I would be grateful if you could share the reported IC50 for `O=C(N/N=C/c1ccco1)c1cccc(I)c1` .
[A] 34.7

[Q] I would be grateful if you could share the reported IC50 for `Cc1ccc(/C=N\NC(=O)Cc2cccs2)o1` .
[A] 51.1

Where do the numbers come from? From patent US20070037752A1.
